Target: monomeric P301S 2N4R tau, pHrodo-labelled (human, UniProt P10636 1-758, pHrodo Red maleimide label); also: test concentration or dose not given here
Sequence (P10636 other isoform, or with tags, fused parts or gaps P301S P301S): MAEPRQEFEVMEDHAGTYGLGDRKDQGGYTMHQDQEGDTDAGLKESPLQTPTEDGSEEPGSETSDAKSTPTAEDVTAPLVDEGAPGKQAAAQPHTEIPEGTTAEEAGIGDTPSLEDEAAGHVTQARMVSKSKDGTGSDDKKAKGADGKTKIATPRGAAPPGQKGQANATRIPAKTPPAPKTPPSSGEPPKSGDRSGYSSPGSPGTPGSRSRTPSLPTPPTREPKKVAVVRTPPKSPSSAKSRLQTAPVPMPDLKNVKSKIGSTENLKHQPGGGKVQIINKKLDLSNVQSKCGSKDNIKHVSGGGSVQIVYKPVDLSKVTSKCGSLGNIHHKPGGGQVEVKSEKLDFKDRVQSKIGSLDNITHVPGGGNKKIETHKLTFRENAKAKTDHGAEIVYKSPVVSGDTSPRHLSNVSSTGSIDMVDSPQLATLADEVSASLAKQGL
Test: cell-based or functional assay
experimentalEndpoint: inhibition of monomeric tau uptake into human iPSC-derived astrocytes (%)
Field format: number, assumed %, no unit text.

>>> experimentalvalue("#44 VH4VK2 humanised hIgG1 (antibody, V domains shown, also called VH4Vκ2; Clone VH4VK2 (C)) VH: QVQLQESGPGLVKPSETLSLTCTVSGIDLSSYAMAWVRQAPGKGLEWIGCIDRRGGTFYASWVKGRFTISKDTSKTTVDLQMTSLTAEDTATYFCARDSGAFDPWGQGTLVTVSS VL: QIVMTQSPSSLSASVGDRVTITCQASQSVYDNYLAWYQQKPGQPPKLLIHAASNLASGVPSRFKGSGSGTEFTLTISSLQPDDFATYYCLGEFSCTTTDCNVFGGGTKVEIK")
84.6
>>> experimentalvalue("#44_VH4VK4 humanised hIgG1 (antibody, V domains shown, also called VH4Vκ4; pVH/pVL) VH: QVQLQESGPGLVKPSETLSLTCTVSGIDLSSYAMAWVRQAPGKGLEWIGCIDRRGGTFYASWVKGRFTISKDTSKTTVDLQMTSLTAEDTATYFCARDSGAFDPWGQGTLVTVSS VL: DIQMTQSPSSLSASVGDRVTITCQASQSVYDNYLAWYQQKPGQPPKLLIHAASNLASGVPSRFSGSGSGTEFTLTISSLQPDDFATYYCLGEFSCTTTDCNVFGGGTKVEIK")
94.1

Challenge: Could you please provide reported inhibition of monomeric tau uptake into human iPSC-derived astrocytes for #44 VH3VK3 humanised hIgG1 (antibody, V domains shown, also called VH3Vκ3; Clone VH3VK3 (A)) VH: QVQLQESGPGLVKPSETLSLTCTVSGIDLSSYAMAWVRQAPGKGLEWIGCIDRRGGTFYASWVKGRFTISKTSTTVDLQMTSLTAEDTATYFCARDSGAFDPWGQGTLVTVSS VL: DIQMTQSPSSLSASVGDRVTITCQASQSVYDNYLAWYQQKPGQPPKLLIHAASNLASGVPSRFKGSGSGTEFTLTISSLQPDDFATYYCLGEFSCTTTDCNVFGGGTKVEIK ? Thanks!
Response given: 85.2
